# TARGET: SIX1 homeodomain (reference allele) (human, UniProt Q15475 108-198)
# Sequence: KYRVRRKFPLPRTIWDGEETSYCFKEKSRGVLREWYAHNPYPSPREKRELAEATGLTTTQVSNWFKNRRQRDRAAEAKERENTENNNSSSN
# PROCEDURE_TEXT: universal protein binding microarray; Universal all-10-mer PBM (8x60K, AMADID 030236), 300 nM GST-tagged protein, Alexa Fluor 488 anti-GST; buffer, salt, pH and temperature not stated (as in Berger); high values mean tight binding
# CONDITION_CONTEXT: protein: ivt; tags: N-terminal GST; dsDNA, one strand shown
The full ranking holds about 33,000 sequences; the median of “e-score” is about -0.053, and the highest 2% start at about 0.38. The list comes from a sample in which the highest values are over-represented; it also holds close analogues and randomly drawn sequences.
VALUE_KIND: binding signal (E-score)
Your answer should be a plain number; it is taken to be in E-score.

Which binding signal is reported for this sequence? `AAGATCCC` 0.243

Return reported binding signal; argument: `GATACCAA` 0.43

binding signal for `ACTGATCT` ? 0.34

Reported binding signal for `ATACGTCC` : what is it? 0.24

Quick check: binding signal of `ACTGATCG` ? 0.156

Consider the sequence `GCGATCGA` and give its measured binding signal. 0.199

Look at this sequence and give its reported binding signal. `AACGGATT` 0.204

// returns reported binding signal for input `CCTGATCC` 0.387

binding signal lookup needed for `GAGATCCC` , thanks. 0.378

Item `ATATTAAC` has what recorded binding signal? 0.156

Which binding signal value belongs to `CACAGATC` ? 0.277

Which binding signal reading was recorded for the sequence `GCGATCCA` ? 0.345

Look up binding signal for this sequence: `GACGGATA` 0.35

Give the measured binding signal of `GGCCGATA` . 0.291

Fill in the blank: the reported binding signal of `CGGTAATA` is ____. 0.23

Which binding signal value belongs to `GCTGATCA` ? 0.198

Form field: reported binding signal of `CCTGATCG` 0.197

Which binding signal reading was recorded for the sequence `GTATTATA` ? 0.377

Reference for the values: paper PMC10668032
